Target: CHK2 (Homo sapiens (Human))
Sequence (O96017 whole entry): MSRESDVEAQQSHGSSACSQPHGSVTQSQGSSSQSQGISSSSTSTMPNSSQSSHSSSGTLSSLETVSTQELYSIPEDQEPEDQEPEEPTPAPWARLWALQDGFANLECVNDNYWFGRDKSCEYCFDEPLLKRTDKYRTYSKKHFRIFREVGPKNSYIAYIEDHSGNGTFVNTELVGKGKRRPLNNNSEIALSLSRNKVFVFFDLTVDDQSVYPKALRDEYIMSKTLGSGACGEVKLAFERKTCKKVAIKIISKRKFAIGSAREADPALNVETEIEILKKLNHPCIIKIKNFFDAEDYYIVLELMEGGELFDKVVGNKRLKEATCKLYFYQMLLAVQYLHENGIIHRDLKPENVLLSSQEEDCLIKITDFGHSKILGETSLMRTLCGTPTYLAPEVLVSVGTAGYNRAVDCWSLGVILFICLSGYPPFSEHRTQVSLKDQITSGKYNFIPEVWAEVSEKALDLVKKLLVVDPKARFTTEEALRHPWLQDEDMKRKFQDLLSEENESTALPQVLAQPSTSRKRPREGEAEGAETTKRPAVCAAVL
Experiment: CHK1/CHK2 selectivity test (LabChip mobility shift)
Format: biochemical
Details: read-out: IC50 value with respect to CHK2
Outcome Measure: pIC50
Quick note: pIC50 means taking -log10 of the concentration in moles per liter.

Output pIC50 of "COc1ccnc(OCCCN)c1-c1cc(Nc2cnc(C#N)cn2)n[nH]1" 7.25

====

Experiment: Pharmacokinetic test in mice
Assay type: in vivo
Conditions: female, BALB/c, mouse, whole blood, iv, liposome formulations, 1.0 mg/kg i.v., trapezoidal method
Outcome Measure: AUC(0-t) (µg·h/mL)
// return numeric value only (unit: µg·h/mL, not printed)

COc1ccnc(OCCCN)c1-c1cc(Nc2cnc(C#N)cn2)n[nH]1; 447

Output AUC(0-t) of COc1cccc(OCCCN)c1-c1cc(Nc2cnc(C#N)cn2)n[nH]1 [Prexasertib, reference compound] 236
